# test system: Ba/F3 cells transformed with human Tel-TrkA (Homo sapiens)
# Construct: expressed in transfected cells; host or cells: Ba/F3 murine hematopoietic progenitor cells (luciferase expressing); the other entry of the earlier key: ETV6 (P41212, Transcription factor ETV6)
# assay explanation: Proliferation of Ba/F3 cells transformed with human Tel-TrkA (Ba/F3 Tel-TrkA)
# Format: cell-based
# condition info: Table 1; 48 hours, Bright Glo luminescence; read-out: Ba/F3 Tel-TrkA
pIC50: −log10 of the molar value.
assay readout: pIC50

O=C(N[C@@H]1c2ccccc2C[C@H]1O)c1cnc2ccc(N3CCC[C@@H]3c3cccc(F)c3)nn12 [X-106]    8.52
O=C(NCCO)c1cnc2ccc(N3CCC[C@@H]3c3cccc(F)c3)nn12 [X-79]    7.21
NCC(=O)Nc1cnc2ccc(N3CCC[C@@H]3c3cccc(F)c3)nn12 [X-193]    6.93
O=C(C=Cc1cccc(F)c1)c1cnc2ccc(N3CCC[C@@H]3c3cccc(F)c3)nn12 [X-126]    7.66
CC(C)C[C@H](CO)NC(=O)c1cnc2ccc(N3CCC[C@@H]3c3cccc(F)c3)nn12 [X-107]    7.40
CCNS(=O)(=O)c1cnc2ccc(N3CCC[C@@H]3c3cccc(F)c3)nn12 [X-237]    5.48

a. COC[C@H](C)NC(=O)c1cnc2ccc(N3CCC[C@@H]3c3cccc(F)c3)nn12 [X-54]
b. COC(=O)Nc1cnc2ccc(N3CCC[C@@H]3c3cccc(F)c3)nn12 [X-235]
Please indicate which has the smaller reported pIC50: a , or b . Respond with the label that goes with your answer.
b

---

# assay explanation: Rat PK (PO 10 mg/kg, IV 3 mg/Kg)
# Type: in vivo
# condition info: in vivo; Rat, IV 3 mg/Kg
assay readout: clearance (mL/min/kg)

P. NC(=O)c1cnc2ccc(N3C[C@@H](F)C[C@@H]3c3cc(F)ccc3F)nn12
Q. CC(=O)Nc1cnc2ccc(N3CCC[C@@H]3c3cc(F)ccc3F)nn12 [reference compound]
Please indicate which has the smaller reported clearance: P , or Q . Respond with the label that goes with your answer.
P

---

# assay explanation: Rat PK (PO 10 mg/kg, IV 3 mg/Kg)
# Assay type: in vivo
# condition info: in vivo; Rat, IV 3 mg/Kg; read-out: Vss
assay readout: Vd (L/kg)

a. CC(=O)Nc1cnc2ccc(N3CCC[C@@H]3c3cc(F)ccc3F)nn12 [reference compound]
b. NC(=O)c1cnc2ccc(N3C[C@@H](F)C[C@@H]3c3cc(F)ccc3F)nn12
Please indicate which has the smaller reported Vd: a , or b . Respond with the label that goes with your answer.
a

---

# assay explanation: Rat PK (PO 10 mg/kg, IV 3 mg/Kg)
# Format: in vivo
# condition info: in vivo; Rat, IV 3 mg/Kg
assay readout: half-life (min)

A. NC(=O)c1cnc2ccc(N3C[C@@H](F)C[C@@H]3c3cc(F)ccc3F)nn12
B. CC(=O)Nc1cnc2ccc(N3CCC[C@@H]3c3cc(F)ccc3F)nn12 [reference compound]
Please indicate which has the smaller reported half-life: A , or B . Respond with the label that goes with your answer.
B
(B: 12 min, A: 74.4 min)

---

# test system: Ba/F3 cells transformed with human Tel-TrkA (Homo sapiens)
# Construct: expressed in transfected cells; host or cells: Ba/F3 murine hematopoietic progenitor cells (luciferase expressing); the other entry of the earlier key: ETV6 (P41212, Transcription factor ETV6)
# assay explanation: Proliferation of Ba/F3 cells transformed with human Tel-TrkA (Ba/F3 Tel-TrkA)
# Type: cell-based
# condition info: Table 1; 48 hours, Bright Glo luminescence; read-out: Ba/F3 Tel-TrkA
pIC50: −log10 of the molar value.
assay readout: pIC50

COCCC(=O)Nc1cnc2ccc(N3CCC[C@@H]3c3cccc(F)c3)nn12    6.64
CC(C)(CO)NC(=O)c1cnc2ccc(N3CCC[C@@H]3c3cccc(F)c3)nn12    7.70
O=C(NCC(F)F)c1cnc2ccc(N3C[C@@H](F)C[C@@H]3c3cccc(F)c3)nn12    9.00
NC(=NO)c1cnc2ccc(N3CCC[C@@H]3c3cccc(F)c3)nn12    7.36
CC(=O)c1cnc2ccc(N3CCC[C@@H]3c3cccc(F)c3)nn12    6.66

1. O=C(N[C@@H]1CCOC1=O)c1cnc2ccc(N3CCC[C@@H]3c3cccc(F)c3)nn12
2. N#Cc1cccc(NC(=O)c2cnc3ccc(N4CCC[C@@H]4c4cccc(F)c4)nn23)c1
3. N#Cc1cnc2ccc(N3CC(F)(F)C[C@@H]3c3cccc(F)c3)nn12
4. CC(C)OC(=O)Nc1cnc2ccc(N3CCC[C@@H]3c3cccc(F)c3)nn12
Could you please order the items by pIC50, going from the lowest number to the highest? Use the labels to give the ranking in the order requested.
4, 2, 3, 1

---

# test system: Ba/F3 cells transformed with human Tel-TrkA (Homo sapiens, UniProt P04629)
# Construct: expressed in transfected cells; host or cells: Ba/F3 murine hematopoietic progenitor cells (luciferase expressing); the other entry of the earlier key: ETV6 (P41212, Transcription factor ETV6)
# Sequence (P04629 510-796 limits assumed): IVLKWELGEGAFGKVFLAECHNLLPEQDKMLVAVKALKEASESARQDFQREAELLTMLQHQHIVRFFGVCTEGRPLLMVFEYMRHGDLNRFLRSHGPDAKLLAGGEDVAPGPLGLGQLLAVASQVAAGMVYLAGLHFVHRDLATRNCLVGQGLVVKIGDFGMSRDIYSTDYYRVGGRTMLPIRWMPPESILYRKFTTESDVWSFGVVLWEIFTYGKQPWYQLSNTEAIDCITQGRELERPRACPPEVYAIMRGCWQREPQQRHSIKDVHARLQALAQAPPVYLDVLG
# assay explanation: Proliferation of Ba/F3 cells transformed with human Tel-TrkA (Ba/F3 Tel-TrkA)
# Format: cell-based
# condition info: Table 1; 48 hours, Bright Glo luminescence; read-out: Ba/F3 Tel-TrkA
pIC50: −log10 of the molar value.
assay readout: pIC50

NC(=O)CNC(=O)c1cnc2ccc(N3C[C@@H](F)C[C@@H]3c3cccc(F)c3)nn12 [X-117]    7.19

a. O=C(NCc1cccc(N2CCOCC2)n1)c1cnc2ccc(N3CCC[C@@H]3c3cccc(F)c3)nn12 [X-25]
b. CC(C)NC(=O)c1ccc(F)cc1C1CC(F)(F)CN1c1ccc2ncc(C(N)=O)n2n1 (centres unmarked) [X-250]
c. CC(=O)O[C@@H](C)C(=O)N1CCC(NC(=O)c2cnc3ccc(N4CCC[C@@H]4c4cccc(F)c4)nn23)CC1 [X-33]
Could you please order the items by pIC50, going from the lowest number to the highest? Use the labels to give the ranking in the order requested.
c, b, a

---

# test system: Ba/F3 cells transformed with human Tel-TrkA (Homo sapiens)
# Construct: expressed in transfected cells; host or cells: Ba/F3 murine hematopoietic progenitor cells (luciferase expressing); the other entry of the earlier key: ETV6 (P41212, Transcription factor ETV6)
# assay explanation: Proliferation of Ba/F3 cells transformed with human Tel-TrkA (Ba/F3 Tel-TrkA)
# Assay type: cell-based
# condition info: Table 1; 48 hours, Bright Glo luminescence; read-out: Ba/F3 Tel-TrkA
pIC50: −log10 of the molar value.
assay readout: pIC50

Consider the worked cases shown below.
NC(=O)c1cnc2ccc(N3C[C@@H](F)C[C@@H]3c3ccc(F)c(F)c3)nn12    6.70
O=C(NC1CCCCC1)c1cnc2ccc(N3CCC[C@@H]3c3cccc(F)c3)nn12    7.66
NC(=O)NC(=O)c1cnc2ccc(N3CC(F)(F)C[C@@H]3c3cccc(F)c3)nn12    7.72
O=C(NC1CCS(=O)(=O)C1)c1cnc2ccc(N3CCC[C@@H]3c3cccc(F)c3)nn12 (some centres unmarked)    7.28
O=C(N[C@H]1CC[C@@H](O)CC1)c1cnc2ccc(N3CCC[C@@H]3c3cccc(F)c3)nn12    8.22

a. CCONC(=O)c1cnc2ccc(N3C[C@@H](F)C[C@@H]3c3cccc(F)c3)nn12
b. CCOC(=O)N1CCC(NC(=O)c2cnc3ccc(N4CCC[C@@H]4c4cccc(F)c4)nn23)CC1
c. C[C@H](O)C(=O)N1CCC(NC(=O)c2cnc3ccc(N4CCC[C@@H]4c4cccc(F)c4)nn23)CC1
Please list these compounds in decreasing order of pIC50. Use the labels to give the ranking in the order requested.
a, b, c
(a: 9.00, b: 7.40, c: 7.12)

---

# assay explanation: Rat PK (PO 10 mg/kg, IV 3 mg/Kg)
# Format: in vivo
# condition info: in vivo; Rat, PO 10 mg/kg, MC/Tween 80 suspension
assay readout: Cmax (nM)

1. NC(=O)c1cnc2ccc(N3C[C@@H](F)C[C@@H]3c3cc(F)ccc3F)nn12
2. CC(=O)Nc1cnc2ccc(N3CCC[C@@H]3c3cc(F)ccc3F)nn12 [reference compound]
When their Cmax values are compared, which is larger, 1 or 2 ? Respond with the label that goes with your answer.
1

---

# test system: Ba/F3 cells transformed with human Tel-TrkA (Homo sapiens, UniProt P04629)
# Construct: expressed in transfected cells; host or cells: Ba/F3 murine hematopoietic progenitor cells (luciferase expressing); the other entry of the earlier key: ETV6 (P41212, Transcription factor ETV6)
# assay explanation: Proliferation of Ba/F3 cells transformed with human Tel-TrkA (Ba/F3 Tel-TrkA)
# Type: cell-based
# condition info: Table 1; 48 hours, Bright Glo luminescence; read-out: Ba/F3 Tel-TrkA
assay readout: IC50 (nM)

Consider the worked cases shown below.
CCOCC(=O)Nc1cnc2ccc(N3CCC[C@@H]3c3cccc(F)c3)nn12    17
COc1ccc(OCC(=O)Nc2cnc3ccc(N4CCC[C@@H]4c4cccc(F)c4)nn23)cc1    78
N#Cc1cnc2ccc(N3CCOCC3c3cccc(F)c3)nn12 (stereo not drawn)    957
O=C(NO)c1cnc2ccc(N3CCC[C@@H]3c3cccc(F)c3)nn12    210

I. O=C(NCCC(F)(F)F)c1cnc2ccc(N3CCC[C@@H]3c3cccc(F)c3)nn12
II. [2H]C1([2H])CC[C@@H](c2cccc(F)c2)N1c1ccc2ncc(C(N)=O)n2n1
Please indicate which has the smaller reported IC50: I , or II . Respond with the label that goes with your answer.
I
